# studySystem: Glutathionylspermidine synthetase/amidase (Escherichia coli) (UniProt P0AES0)
# Sequence (P0AES0 whole entry, looked up): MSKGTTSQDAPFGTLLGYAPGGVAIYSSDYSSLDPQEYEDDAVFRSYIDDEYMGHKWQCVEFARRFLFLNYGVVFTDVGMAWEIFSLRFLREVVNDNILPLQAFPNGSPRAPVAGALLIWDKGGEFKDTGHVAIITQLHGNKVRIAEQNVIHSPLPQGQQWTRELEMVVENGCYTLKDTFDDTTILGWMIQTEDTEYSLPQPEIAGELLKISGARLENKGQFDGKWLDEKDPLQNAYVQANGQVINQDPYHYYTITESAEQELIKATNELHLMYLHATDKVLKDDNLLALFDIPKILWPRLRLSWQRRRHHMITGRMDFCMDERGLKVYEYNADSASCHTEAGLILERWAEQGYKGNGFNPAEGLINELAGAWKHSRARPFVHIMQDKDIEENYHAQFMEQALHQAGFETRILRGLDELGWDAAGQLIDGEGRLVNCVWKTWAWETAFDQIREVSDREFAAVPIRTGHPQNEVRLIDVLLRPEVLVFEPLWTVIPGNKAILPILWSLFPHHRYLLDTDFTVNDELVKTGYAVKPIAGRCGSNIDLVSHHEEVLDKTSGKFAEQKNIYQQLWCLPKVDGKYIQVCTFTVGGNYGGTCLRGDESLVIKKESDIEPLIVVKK
propertyLabel: Ki (µM)

>>> datavalue("C[C@H](NC(=O)CC[C@H](N)C(=O)O)C(=O)NCP(=O)(O)OCCCNCCCCN")
14
